tested on: MCF7; assay: Anticancer activity against human MCF7 cells assessed as survival fraction at 50 uM after 48 hrs by SRB assay; assay type: functional
// returns no (0) unless Activity is strictly below 0.5, in which case yes (1)

The following molecules have reported results that may help.
>  <molecule>
CC1(C)CC(=O)C2=C(C1)N(c1ccc(S(N)(=O)=O)cc1)c1ncnc(Cl)c1C2c1ccc(Cl)cc1 (configuration not stated)

>  <system tested>
MCF7

>  <assigned class>
yes (1)

$$$$
>  <molecule>
CC1(C)CC(=O)C2=C(C1)N(c1ccc(S(N)(=O)=O)cc1)c1ncnc(N=C=S)c1C2c1ccc(Cl)cc1 (configuration not stated)

>  <system tested>
MCF7

>  <assigned class>
yes (1)

$$$$
>  <molecule>
CCOC(=O)Cn1cnc2c(c1=O)C(c1ccc(Cl)cc1)C1=C(CC(C)(C)CC1=O)N2c1ccc(S(N)(=O)=O)cc1 (configuration not stated)

>  <system tested>
MCF7

>  <assigned class>
no (0)

$$$$
>  <molecule>
CC1(C)CC(=O)C2=C(C1)N(c1ccc(S(N)(=O)=O)cc1)C(N)=C(C(N)=O)C2c1ccc(Cl)cc1 (configuration not stated)

>  <system tested>
MCF7

>  <assigned class>
yes (1)

$$$$
>  <molecule>
COc1cccc2c1C(=O)c1c(O)c3c(c(O)c1C2=O)C[C@@](O)(C(=O)CO)C[C@@H]3O[C@H]1C[C@H](N)[C@H](O)[C@H](C)O1 [DOXORUBICIN]

>  <system tested>
MCF7

>  <assigned class>
yes (1)

$$$$

Attention now turns to another entry.
Req: Is the reported Activity for CC1(C)CC(=O)C2=C(C1)N(c1ccc(S(N)(=O)=O)cc1)c1ncnc(NN)c1C2c1ccc(Cl)cc1 (configuration not stated) strictly below 0.5?
Resp: no (0)

* * *

system: MCF7; assay: Anticancer activity against human MCF7 cells assessed as survival fraction at 100 uM after 48 hrs by SRB assay; format: functional
Please go through the items and note down their Activity.
Answers are plain numbers.

Answered cases to consult:
>  <compound>
CCNC(=S)NC1=C(C#N)C(c2ccc(Cl)cc2)C2=C(CC(C)(C)CC2=O)N1c1ccc(S(N)(=O)=O)cc1 (stereo not given)

>  <measured result>
0.561

$$$$
>  <compound>
CC1(C)CC(=O)C2=C(C1)N(c1ccc(S(N)(=O)=O)cc1)C(N)=C(C(N)=O)C2c1ccc(Cl)cc1 (stereo not given)

>  <measured result>
0.452

$$$$

Would you be so kind as to report Activity for each listed record?
1. CCO/C=N/C1=C(C#N)C(c2ccc(Cl)cc2)C2=C(CC(C)(C)CC2=O)N1c1ccc(S(N)(=O)=O)cc1 (stereo not given)
2. COc1cccc2c1C(=O)c1c(O)c3c(c(O)c1C2=O)C[C@@](O)(C(=O)CO)C[C@@H]3O[C@H]1C[C@H](N)[C@H](O)[C@H](C)O1

Resp:
[0.607, 0.494]

Would you be so kind as to report Activity for each listed record?
1. CC1(C)CC(=O)C2=C(C1)N(c1ccc(S(N)(=O)=O)cc1)c1nc[nH]c(=O)c1C2c1ccc(Cl)cc1 (stereo not given)
2. CC1(C)CC(=O)C2=C(C1)N(c1ccc(S(N)(=O)=O)cc1)c1nc(CC#N)[nH]c(=O)c1C2c1ccc(Cl)cc1 (stereo not given)
3. CCOC(=O)Cn1cnc2c(c1=O)C(c1ccc(Cl)cc1)C1=C(CC(C)(C)CC1=O)N2c1ccc(S(N)(=O)=O)cc1 (stereo not given)

Resp:
1. 0.468
2. 0.525
3. 0.563

Would you be so kind as to report Activity for each listed record?
1. CC1(C)CC(=O)C2=C(C1)N(c1ccc(S(N)(=O)=O)cc1)c1nc[nH]c(=S)c1C2c1ccc(Cl)cc1 (stereo not given)
2. CC1(C)CC(=O)C2=C(C1)N(c1ccc(S(N)(=O)=O)cc1)C(N)=C(C1=NCCN1)C2c1ccc(Cl)cc1 (stereo not given)
3. CC1(C)CC(=O)C2=C(C1)N(c1ccc(S(N)(=O)=O)cc1)c1ncnc(N=C=S)c1C2c1ccc(Cl)cc1 (stereo not given)
4. CC1(C)CC(=O)C2=C(C1)N(c1ccc(S(N)(=O)=O)cc1)c1ncnc(N)c1C2c1ccc(Cl)cc1 (stereo not given)
5. CC(=O)CC(=O)NC1=C(C#N)C(c2ccc(Cl)cc2)C2=C(CC(C)(C)CC2=O)N1c1ccc(S(N)(=O)=O)cc1 (stereo not given)
6. CC1(C)CC(=O)C2=C(C1)N(c1ccc(S(N)(=O)=O)cc1)C(N1C(=O)CCC1=O)=C(C#N)C2c1ccc(Cl)cc1 (stereo not given)

Resp:
[0.814, 0.621, 0.515, 0.602, 0.549, 0.549]

Would you be so kind as to report Activity for each listed record?
1. CC1(C)CC(=O)C2=C(C1)N(c1ccc(S(N)(=O)=O)cc1)c1ncnc(NN)c1C2c1ccc(Cl)cc1 (stereo not given)
2. Cc1nc2c(c(=O)[nH]1)C(c1ccc(Cl)cc1)C1=C(CC(C)(C)CC1=O)N2c1ccc(S(N)(=O)=O)cc1 (stereo not given)

Resp:
1. 0.358
2. 0.557
